molecular target: hQC (Homo sapiens, UniProt Q16769); experiment: Inhibitor assay for glutaminyl cyclase activity (fluorometric, H-Gln-βNA / H-Gln-AMC); format: biochemical; conditions: read-out: IC50
Sequence (Q16769 29-361): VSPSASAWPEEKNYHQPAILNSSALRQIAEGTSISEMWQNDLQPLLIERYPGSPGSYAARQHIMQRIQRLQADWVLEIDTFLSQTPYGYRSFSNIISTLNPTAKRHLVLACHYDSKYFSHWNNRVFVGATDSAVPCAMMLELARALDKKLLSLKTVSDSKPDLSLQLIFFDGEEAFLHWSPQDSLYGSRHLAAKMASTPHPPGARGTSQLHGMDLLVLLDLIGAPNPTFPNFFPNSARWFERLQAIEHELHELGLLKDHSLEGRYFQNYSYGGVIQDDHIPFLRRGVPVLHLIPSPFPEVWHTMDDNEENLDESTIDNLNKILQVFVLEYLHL
quantity: pIC50
Numbers only, as −log10 of the molar value.

A selection of reference data follows.
{"compound": "O=C(C1=C(O)C(=O)N(c2ccc3[nH]cnc3c2)C1c1ccc(Cl)c(Cl)c1)C1CCCCC1 (stereo not shown) [Compound 372]", "quantitative_result": 6.40}
{"compound": "CC1=C(O)C(=O)N(CCCn2ccnc2)C1c1ccccc1O (stereo not shown) [Compound 28]", "quantitative_result": 6.40}
{"compound": "CSCC1=C(O)C(=O)N(c2ccc3[nH]cnc3c2)C1c1cc(Cl)ccc1O (stereo not shown) [Compound 336]", "quantitative_result": 6.51}

Now examine the next entry.
The compound CC(=O)C1=C(O)C(=O)N(c2ccc3[nH]cnc3c2)C1c1cc[nH]n1 (stereo not shown) [Compound 444] showed pIC50 equal to 5.16

###

For each entry below, report its pIC50 value.
target: UniProt Q16769; test: Inhibitor assay for glutaminyl cyclase activity (fluorometric, H-Gln-βNA / H-Gln-AMC); format: biochemical; details: read-out: IC50
One number for each entry, as −log10 of the molar value.

A selection of reference data follows.
{"compound": "CCC1=C(O)C(=O)N(CCCn2ccnc2)C1/C=C/C(C)C (centres unmarked) [Compound 226]", "quantity": "pIC50", "quantitative_result": 5.51}
{"compound": "O=C1C(O)=C(c2c[nH]c3ccccc23)C(c2cccs2)N1CCCn1ccnc1 (centres unmarked) [Compound 137]", "quantity": "pIC50", "quantitative_result": 6.40}
{"compound": "CC(C)C1=C(O)C(=O)N(CCCn2ccnc2)C1c1cccc(O)c1 (centres unmarked) [Compound 75]", "quantity": "pIC50", "quantitative_result": 5.31}
{"compound": "CCC1=C(O)C(=O)N(CCCn2ccnc2)C1c1ccncc1 (centres unmarked) [Compound 244]", "quantity": "pIC50", "quantitative_result": 6.40}

Tested on UniProt Q16769: O=C(C1=C(O)C(=O)N(c2ccc3[nH]cnc3c2)C1c1ccnc2ccccc12)C1CC1 (centres unmarked) [Compound 296] . Observed pIC50: 5.52

###

molecular target: hQC (Homo sapiens); assay: Inhibitor assay for glutaminyl cyclase activity (fluorometric, H-Gln-βNA / H-Gln-AMC); assay type: biochemical; details: read-out: IC50
Field 'label' (enum: TRUE / FALSE). Set to TRUE when IC50 is strictly under 400 nM; else FALSE.

Consider the following illustrative entries.
{"compound": "CCC1=C(O)C(=O)N(CCCn2ccnc2)C1c1ccccc1F (stereo not drawn) [Compound 250]", "label_value": "FALSE"}
{"compound": "O=C(O)c1ccc(C2C(c3ccc(O)cc3)=C(O)C(=O)N2c2ccc3[nH]cnc3c2)o1 (stereo not drawn) [Compound 389]", "label_value": "TRUE"}
{"compound": "CC(C)C1=C(O)C(=O)N(CCCn2ccnc2)C1/C=C/c1ccccc1 (stereo not drawn) [Compound 64]", "label_value": "FALSE"}
{"compound": "O=C1C(O)=C(c2cccc(O)c2)C(c2ccccc2O)N1CCCn1ccnc1 (stereo not drawn) [Compound 14]", "label_value": "FALSE"}
{"compound": "COc1ccc(C2C(c3ccccc3)=C(O)C(=O)N2CCCn2ccnc2)cc1 (stereo not drawn) [Compound 86]", "label_value": "TRUE"}

Pending compound:
Q. In the record for O=C(C1=C(O)C(=O)N(c2ccc3[nH]cnc3c2)C1)C1CCCCC1 [Compound 441] , is IC50 less than 400 nM?
A. FALSE

###

target: hQC (Homo sapiens); assay: Inhibitor assay for glutaminyl cyclase activity (fluorometric, H-Gln-βNA / H-Gln-AMC); assay type: biochemical; conditions: compound from preparative synthesis, purified
quantity: Ki (nM)
One number for each entry, in nM.

A selection of reference data follows.
{"compound": "CC1=C(O)C(=O)N(c2ccc3[nH]cnc3c2)C1c1cccc(Cl)c1Cl (stereo not drawn)", "unit_tag": "nM", "Ki": 14.6}
{"compound": "CC1=C(O)C(=O)N(c2ccc3nc[nH]c3c2)C1c1cccc(F)c1F (stereo not drawn)", "unit_tag": "nM", "Ki": 11.6}

Now examine the next entry.
The compound CC1=C(O)C(=O)N(c2ccc3nc[nH]c3c2)C1c1c(F)cccc1F (stereo not drawn) showed Ki equal to 29.2

###

target: hQC (Homo sapiens, UniProt Q16769); assay: Inhibitor assay for glutaminyl cyclase activity (fluorometric, H-Gln-βNA / H-Gln-AMC); type: biochemical; settings: read-out: IC50
quantity: log10(IC50) (log10 of the value in nM)
Units before log transform: nM; reported quantity: IC50; transform: log10.

A selection of reference data follows.
{"compound": "CCCCCC1=C(O)C(=O)N(CCCn2ccnc2)C1c1cc(Cl)cc(Cl)c1O (stereo not drawn)", "log10(IC50)": 1.60}
{"compound": "CC1=C(O)C(=O)N(CCCn2ccnc2)C1c1ccc2[nH]ccc2c1 (stereo not drawn)", "log10(IC50)": 1.60}
{"compound": "CC(C)(C)C(=O)C1=C(O)C(=O)N(c2ccc3[nH]cnc3c2)C1c1ccco1 (stereo not drawn)", "log10(IC50)": 3.61}
{"compound": "CCC1=C(O)C(=O)N(CCCn2ccnc2)C1c1ccccc1 (stereo not drawn)", "log10(IC50)": 3.11}

Field: log10(IC50). Fill in for each record below.
1. CC(C)C1=C(O)C(=O)N(c2ccc3[nH]cnc3c2)C1c1cc(F)cc(F)c1F (stereo not drawn)
2. COc1ccc(C2C(C(C)C)=C(O)C(=O)N2CCCn2ccnc2)cc1 (stereo not drawn)
3. O=C(C1=C(O)C(=O)N(c2ccc3[nH]cnc3c2)C1c1ncc[nH]1)C1CCCCC1 (stereo not drawn)
4. O=C1C(O)=C(c2c[nH]c3ccccc23)C(c2ncc[nH]2)N1CCCn1ccnc1 (stereo not drawn)

A.
1: 3.11; 2: 2.60; 3: 3.84; 4: 3.11

Field: log10(IC50). Fill in for each record below.
1. CC1=C(O)C(=O)N(CCCn2ccnc2)C1C(F)(F)F (stereo not drawn)
2. CCCC1C(c2cccc(O)c2)=C(O)C(=O)N1CCCn1ccnc1 (stereo not drawn)
3. CCCCCC1=C(O)C(=O)N(CCCn2ccnc2)C1c1ccccc1 (stereo not drawn)

A.
1: 3.34; 2: 2.60; 3: 1.60

Field: log10(IC50). Fill in for each record below.
1. O=C1C(O)=C(c2ccc(O)cc2)C(c2cccs2)N1CCCn1ccnc1 (stereo not drawn)
2. CC(C)(C)C(=O)C1=C(O)C(=O)N(c2ccc3[nH]cnc3c2)C1c1ccc(-c2ccccn2)cc1 (stereo not drawn)
3. CC(C)CC(=O)C1=C(O)C(=O)N(c2ccc3[nH]cnc3c2)C1c1c[nH]cn1 (stereo not drawn)
4. O=C1C(O)=C(c2cccc(O)c2)C(c2cc[nH]n2)N1CCCn1ccnc1 (stereo not drawn)
5. CC1=C(O)C(=O)N(c2ccc3[nH]cnc3c2)C1c1c(F)c(F)cc(F)c1F (stereo not drawn)
6. O=C1C(O)=C(c2c[nH]c3ccccc23)C(c2ccc3[nH]ccc3c2)N1CCCn1ccnc1 (stereo not drawn)
7. CC1=C(O)C(=O)N(CCCn2ccnc2)C1c1ccccc1 (stereo not drawn)

A.
1. 1.60
2. 3.48
3. 3.60
4. 3.97
5. 3.61
6. 1.60
7. 3.11

###

Target: hQC (Homo sapiens, UniProt Q16769)
Assay: Inhibitor assay for glutaminyl cyclase activity (fluorometric, H-Gln-βNA / H-Gln-AMC)
Format: biochemical
Settings: read-out: IC50
Experimental: All measurements were performed with a BioAssay Reader HTS-7000Plus for microplates (Perkin Elmer) at 30° C. QC activity was evaluated fluorometrically using H-Gln-βNA. […] QC activity was determined from a standard curve of β-naphthylamine under assay conditions. […] In a second fluorometric assay, QC activity was determined using H-Gln-AMC as substrate. Reactions were carried out at 30° C. utilizing the NOVOStar reader for microplates (BMG labtechnologies). […]
For each entry below, report its pIC50 value.
One number for each entry, as −log10 of the molar value.

A selection of reference data follows.
{"compound": "O=C1C(O)=C(c2c[nH]c3ccccc23)C(c2cc(Cl)cc(Cl)c2O)N1CCCn1ccnc1 (centres unmarked)", "quantity": "pIC50", "quantitative_result": 5.89}
{"compound": "O=C1C(O)=C(c2c[nH]c3ccccc23)C(c2cc[nH]n2)N1CCCn1ccnc1 (centres unmarked)", "quantity": "pIC50", "quantitative_result": 6.40}
{"compound": "CC1=C(O)C(=O)N(c2ccc3[nH]cnc3c2)C1c1ccc(C(=O)O)o1 (centres unmarked)", "quantity": "pIC50", "quantitative_result": 5.86}
{"compound": "CC(C)C1=C(O)C(=O)N(CCCn2ccnc2)C1c1ccccc1 (centres unmarked)", "quantity": "pIC50", "quantitative_result": 5.51}
{"compound": "CC(=O)C1=C(O)C(=O)N(c2ccc3[nH]cnc3c2)C1c1ccc(C)o1 (centres unmarked)", "quantity": "pIC50", "quantitative_result": 5.86}

Field: pIC50. Fill in for each record below.
1. CC(C)CC(=O)C1=C(O)C(=O)N(c2ccc3[nH]cnc3c2)C1c1cc[nH]n1 (centres unmarked)
2. CC(=O)C1=C(O)C(=O)N(c2ccc3[nH]cnc3c2)C1c1cc(C)c(C)o1 (centres unmarked)
3. CC1=C(O)C(=O)N(c2ccc3[nH]cnc3c2)C1c1cccc(C)c1 (centres unmarked)
4. O=C(C1=C(O)C(=O)N(c2ccc3[nH]cnc3c2)C1c1cccc(F)c1F)c1ccccc1 (centres unmarked)

A.
1: 5.10; 2: 5.92; 3: 5.00; 4: 7.40
